- Test system: A498
- assay-text: NCI tumour cell line growth inhibition, 48 h
Calls of active or inactive are those of the source. Cut-off read from the data, not from the text of the source: active = GI50 up to about 1.1 µM and inactive = higher.
measure: GI50

COc1ccc(/C(=N/Nc2ccccc2)C(c2ccc(OC)cc2)C2OC(=O)c3ccccc32)cc1 (centres undefined)	> 100 µM (inactive)

Hi there! I need GI50 for each item below, if you can.
1. CNC(=O)NCCCCC(NC(=O)OCc1ccccc1)C(=O)OCc1ccccc1 (centres undefined)
2. O=C(NNCC(F)(F)F)c1ccncc1
3. O=C1OCC2OC(=O)c3cc(O)c(O)c(O)c3-c3c(O)c(O)c(O)c4c3C(=O)OC(C2OC(=O)c2cc(O)c(O)c(O)c2-c2c1cc(O)c(O)c2O)C1OC(=O)C2C4=C(O)C(=O)C23Oc2cc(O)c4c(c2[C@H]13)O[C@H](c1ccc(O)c(O)c1)[C@@H](O)C4 (some centres undefined)
4. Cn1c2cc([N+](=O)[O-])ccc2c(=O)c2c(O)cc3c(c21)C=CC(C)(C)O3
5. CC(C)C1CC(CO)(CNc2cc(Cl)nc(N)n2)C1 (centres undefined)

RESULT:
1: > 100 µM (inactive); 2: > 100 µM (inactive); 3: > 100 µM (inactive); 4: 33.5 µM (inactive); 5: 4.49 µM (inactive)

----------
- Tested on: CCRF-CEM
- assay-text: NCI tumour cell line growth inhibition, 48 h
Calls of active or inactive are those of the source. Cut-off read from the data, not from the text of the source: active = GI50 up to about 1.1 µM and inactive = higher.
The reply should name one outcome from active, inactive

Some solved cases for reference:
COC(=O)Cc1cccc2c1CCC2=O	inactive
Cc1cn2cc(-c3ccncc3)nc2s1	inactive
O=C1Nc2ccc(S(=O)(=O)O)cc2/C1=C1/Nc2ccc(Br)cc2C1=O	inactive
O=C1c2cc(CCl)sc2C(=O)c2ccsc21	active
O=C(O)CNC(=O)C(CSC(=O)OCC1c2ccccc2-c2ccccc21)NC(=O)CCC(NC(=O)OCC1c2ccccc2-c2ccccc21)C(=O)O (centres undefined)	inactive
CC(=O)Nc1nc(Cl)cc(NCC2(CO)CCC2)n1	inactive
CCOC(=O)NC(NC(C)CC)(C(F)(F)F)C(F)(F)F (centres undefined)	inactive
COC1OC2=CCC3C(=O)NC(=O)C3C2[C@H](OCc2ccccc2)C1OCc1ccccc1 (some centres undefined)	inactive

QUERY: Lab log entry: "O=C1N(Cl)C(=O)C(c2ccc(Cl)cc2)(c2ccc(Cl)cc2)N1Cl" — outcome as called in the assay?
RESULT: inactive

QUERY: Lab log entry: C/C(=N\NC(N)=O)C(CN1CCOCC1)C(c1ccccc1)c1c(O)c2ccccc2oc1=O (centres undefined) — outcome as called in the assay?
RESULT: inactive

QUERY: Lab log entry: COC(=O)C1(C)CCCC2(C)c3cc(OC)ccc3C(=O)C(Br)C12 (centres undefined) — outcome as called in the assay?
RESULT: inactive

QUERY: Lab log entry: CC1Cc2c(cc(N)nc2Br)NC1=O (centres undefined) — outcome as called in the assay?
RESULT: inactive

QUERY: Lab log entry: "CCOC(=O)C1=c2[nH]c3cccc4cccc(c43)n2C(=O)CC1" — outcome as called in the assay?
RESULT: inactive

QUERY: Lab log entry: "COc1ccc(-c2cc3[nH]nc(N)c3c(=O)o2)cc1" — outcome as called in the assay?
RESULT: inactive

QUERY: Lab log entry: C/C(=C\CBr)CCC(Br)C(C)(C)Br (centres undefined) — outcome as called in the assay?
RESULT: inactive

QUERY: Lab log entry: "C/C(=N/NC(N)=S)c1ccc2ccccc2c1" — outcome as called in the assay?
RESULT: inactive

QUERY: Lab log entry: OC1CC1Sc1ccccc1 (centres undefined) — outcome as called in the assay?
RESULT: inactive

QUERY: Lab log entry: "Cn1c(=O)cc(/N=N\c2ccc(Cl)c(Cl)c2)[nH]c1=O" — outcome as called in the assay?
RESULT: inactive

QUERY: Lab log entry: CC(NC(=O)C(N)Cc1ccc(O)cn1)C(=O)O (centres undefined) — outcome as called in the assay?
RESULT: inactive

QUERY: Lab log entry: "O=C(N/N=C(COc1ccc([N+](=O)[O-])cc1)\N=C\c1ccncc1)c1ccncc1" — outcome as called in the assay?
RESULT: inactive

QUERY: Lab log entry: "CN1B(c2ccccc2)N(C)C(=O)N(C)C1=O" — outcome as called in the assay?
RESULT: inactive

QUERY: Lab log entry: "O/N=N\c1nc(-c2cccnc2)nc2ccccc12" — outcome as called in the assay?
RESULT: inactive

QUERY: Lab log entry: "C/N=C(/NC)N(C)c1nc(=[N+](C)C)ss1.[O-][Cl+3]([O-])([O-])[O-]" — outcome as called in the assay?
RESULT: inactive

QUERY: Lab log entry: "CO/N=C(/C(=O)OC)c1ccccc1COc1cccc(C(F)(F)F)c1" — outcome as called in the assay?
RESULT: inactive
